- Test Description: inhibitors of TWEAK-Fn14 signaling, primary screen, luciferase reporter cells, uHTS (AID 1159606)
- Condition Label: TWEAK-stimulated Fn14 reporter cells, luciferase luminescence, 8 h; at 10 µM; active compounds read high
About 7,300 (2%) of roughly 360,000 compounds were called active. What follows is part of a selection rich in actives, with near analogues and random picks from the rest.
Give criterion met when the value for inhibition is at least 30%. Give criterion not met when it is less.

molecule=CSc1ccccc1C(=O)Nc1cccc(C(C)=O)c1 class_name="criterion not met"
molecule="Cc1ccccc1CC1(CO)CCCN(Cc2ccc3c(c2)OCCO3)C1 (stereo unspecified)" class_name="criterion not met"
molecule=Cc1cc(Cl)c(S(=O)(=O)Nc2ccc3c(c2)OCCO3)cc1OCC(N)=O class_name="criterion met"
molecule=O=C(NCc1ccc(F)cc1)C1CCN(C(=O)Nc2ccc(F)cc2)CC1 class_name="criterion met"
molecule="OCCC#Cc1ccc(N2C(c3ccsc3)=Cc3ccc(F)cc3C2c2c[nH]c3ccccc23)cc1 (stereo unspecified)" class_name="criterion not met"
molecule=COCCOC(=O)c1c(C)oc2cc(Br)c(OCC(N)=O)cc12 class_name="criterion not met"
molecule=COc1c(C)c2c(c(O)c1C/C=C(\C)CCC(=O)O)C(=O)OC2 class_name="criterion not met"
molecule=CCCc1nc2c3ccccc3ccn2c1Cc1ccccc1C(F)(F)F class_name="criterion not met"
molecule=COc1ccc(-c2nn(C)c(=O)c3ccccc23)cc1CNC(=O)C1CCCCC1 class_name="criterion not met"
molecule="CCC(C)N1C(=O)S/C(=C/c2ccc(Sc3nc4ccccc4[nH]3)o2)C1=O (stereo unspecified)" class_name="criterion met"
molecule=CC(=O)c1cccc(NC(=O)C2CCN(C(=O)c3ccccc3Cl)CC2)c1 class_name="criterion not met"
molecule=C=CCOc1cccc(CNn2cn[nH]c2=S)c1 class_name="criterion not met"
molecule=CN1CCC(N(C)S(=O)(=O)c2ccc(NC(=O)c3cccc(C#N)c3)cc2)CC1 class_name="criterion not met"
molecule=C=CCn1c(=NC(=O)c2cccs2)sc2cc(NC(C)=O)ccc21 class_name="criterion not met"
molecule=CCOC(=O)[C@]12CCCC=C1N(Cc1ccc3c(c1)OCO3)C(=O)[C@H](CC(=O)NCc1cccs1)C2 class_name="criterion not met"
molecule=CCSc1nsc(NC(=O)Nc2cccc(C(C)=O)c2)n1 class_name="criterion met"
molecule=C[C@@H]1C[C@@H]2O[C@H]2/C=C\C=C\C(=O)Cc2c(Cl)c(O)cc(O)c2C(=O)O1 class_name="criterion met"
molecule=C=CCSc1nsc(NC(=O)Nc2cccc(C(C)=O)c2)n1 class_name="criterion met"
molecule=CCN(CC)C(=O)c1sc2nc(-c3ccccc3)ccc2c1N class_name="criterion met"
molecule=O=C(Cn1nnc2ccccc2c1=O)Nc1cc(C(F)(F)F)ccc1N1CCOCC1 class_name="criterion not met"

----------
- Test Description: inhibitors of TWEAK-Fn14 signaling, primary screen, luciferase reporter cells, uHTS (AID 1159606)
- Condition Label: TWEAK-stimulated Fn14 reporter cells, luciferase luminescence, 8 h; at 10 µM; active compounds read high
Among all 360,000 compounds or so, about 7,300 (2%) were called active. The sample holds actives, similar compounds and a random draw of the others, so the mix is not that of the screen.
Quantity Measured: inhibition

molecule=CCc1c(C)nc(SCC(=O)NC2CCCC2)[nH]c1=O val="15.7% (inactive)"
molecule="CNC(=O)c1c(NC(NC(=O)c2ccco2)C(=O)c2ccc(Cl)cc2)sc2c1CCCC2 (stereo unspecified)" val="-9.64% (inactive)"
molecule="O=C(NCc1ccccc1)C1c2ccccc2OCC(=O)N1CCCN1CCOCC1 (stereo unspecified)" val="-1.12% (inactive)"
molecule=N#CCCN(C(=S)Nc1ccc(Cl)c(Cl)c1)C1CCCCC1 val="7.89% (inactive)"
molecule=Cc1ccc(Cl)cc1N1CCN(C(=O)c2cccc3c(=O)c(C)c(-c4ccccc4)oc23)CC1 val="40.6% (inactive)"
molecule=CCN(CC)c1ccc(NC(=O)c2ccc(=O)[nH]c2)cc1S(=O)(=O)Nc1ccc(OC)cc1 val="9.69% (inactive)"
molecule=COC(=O)[C@]12CCCCC=C1N(Cc1ccccc1)C(=O)[C@H](CC(=O)NCc1ccc(C)o1)C2 val="9.51% (inactive)"
molecule="COc1ccc(C2OC(CCc3ccccc3)Cc3[nH]c(=S)[nH]c(=O)c32)cc1 (stereo unspecified)" val="-31.7% (inactive)"
molecule=CCOC(=O)N1C(=O)C[C@](Sc2ccc(C)cc2)(C(=O)OC)[C@H]1c1ccccc1 val="14.7% (inactive)"
molecule=CCOc1ccc(C(=O)NC(=S)Nc2ccc(N3CCOCC3)c(Cl)c2)cc1[N+](=O)[O-] val="62.8% (active)"
molecule=O=C1CC[C@@H](C(=O)N2CSC[C@@H]2C(=O)Nc2ccc(C(F)(F)F)cc2)N1 val="22.5% (inactive)"
molecule=Cc1cc(C(=O)COC(=O)CCCN2C(=O)c3ccccc3C2=O)c(C)n1C val="5.35% (inactive)"
molecule=C=CCN(CC=C)C(=O)CN1C(=O)c2ccccc2C1=O val="15.1% (inactive)"
molecule=COC(=O)[C@@]1(Sc2ccc(C)cc2)CC(=O)N(c2cccc(SC)c2)[C@@H]1c1ccccc1 val="69.9% (active)"
molecule=O=C(O)CCn1cc(/C=C/C(=O)c2ccc(Cl)cc2)c(-c2cccc(Br)c2)n1 val="66% (active)"
molecule="CC(=O)N1CCCc2cc(S(=O)(=O)N3CCCC(C(=O)N4CCN(c5cccc(Cl)c5)CC4)C3)ccc21 (stereo unspecified)" val="87.5% (active)"
molecule=COC(=O)c1ccc2nc(-c3ccc(F)cc3)c(Cc3ccc(C)cc3)n2c1 val="-0.5% (inactive)"
molecule=CCCCCCN1C[C@H](O)[C@@H](n2cc(C3CC3)nn2)C[C@@H]1c1ccc(Cl)cc1 val="-1.73% (inactive)"
molecule=COc1ccc(CNC(=O)CN2C(=O)c3ccccc3S2(=O)=O)cc1 val="8.55% (inactive)"
molecule=CCOc1ccc(NC(=O)CN(C)C(=O)CSc2ccccc2)cc1OCC val="2.8% (inactive)"
molecule=COC(=O)c1ccccc1NC(=O)CSc1n[nH]c(-c2ccncc2)n1 val="-4.67% (inactive)"
molecule=CCOc1ccc(C(=O)NC(=S)Nc2ccc(NC(=O)C(C)C)cc2)cc1[N+](=O)[O-] val="3.3% (inactive)"
molecule=COc1ccccc1NC(=O)Nc1nnc(Cc2ccc(F)cc2)s1 val="-26.6% (inactive)"
molecule=O=C(COc1cccc(F)c1)Oc1ccc(C(=O)c2ccccc2)cc1 val="10.4% (inactive)"
molecule=CC(=O)N1CCCc2cc(S(=O)(=O)CCC(=O)N3CCN(c4ccccc4)CC3)ccc21 val="-26.2% (inactive)"
molecule=O=c1cc(N2CCCCC2)c(-c2ccccc2)nn1Cc1cccc(F)c1 val="-1.41% (inactive)"
molecule=CC1(C)OC(=O)C2=C(C[C@@H](C3CC3)O[C@H]2CCc2cccc(Cl)c2)O1 val="-0.44% (inactive)"
molecule=COc1ccc(NC(=O)CN(C)C(=O)/C=C/c2cn(Cc3ccccc3)nc2-c2cccnc2)cc1 val="-11.2% (inactive)"
molecule=O=C(CN1C(=O)c2ccccc2S1(=O)=O)N1CCc2ccccc21 val="103% (active)"
molecule=CNC(=O)NCCN1CCCC1=O val="-16.3% (inactive)"
molecule="Cc1nccn1CCC1CCCCN1C(=O)CCc1nnc(-c2ccsc2)o1 (stereo unspecified)" val="-14.9% (inactive)"
molecule="Cc1cc(Cl)c2oc(C(=O)NC(C)c3ccncn3)c(C)c2c1 (stereo unspecified)" val="-26.6% (inactive)"
molecule=CCc1cccc(CC)c1NC(=O)COc1ccccc1C(=O)c1cc(C#N)c(=O)n(C2CCCCC2)c1 val="19.8% (inactive)"
molecule=O=C(CSc1ccc([N+](=O)[O-])cn1)Nc1ccc(N2CCOCC2)c(Cl)c1 val="-16.6% (inactive)"
molecule=O=C(OCC(=O)N1CCN(C(=O)c2ccco2)CC1)c1cccc(O)c1 val="-18.9% (inactive)"
molecule="O=C1C2C3C=CC(C3)C2C(=O)N1c1ccc(-c2nc3ccccc3c(=O)o2)cc1 (stereo unspecified)" val="-0.15% (inactive)"
molecule="CC1Cc2[nH][nH]c(=O)c2C(C2CC2)O1 (stereo unspecified)" val="4.07% (inactive)"
molecule=O=C(Nc1nnc(COc2ccccc2)s1)Nc1ccccc1F val="62.4% (active)"
molecule=O=C(NCc1cccnc1)c1ccc2nc([C@@H]3O[C@H](CO)[C@H](O)[C@H](O)[C@H]3O)[nH]c2c1 val="13.3% (inactive)"
molecule=Cc1cc2c(cc1S(=O)(=O)NCc1ccc(Cl)cc1)OCC(=O)N2 val="-8.95% (inactive)"
molecule=COC[C@@H]1NS(=O)(=O)c2ccc(Br)cc2O[C@H]1c1ccccc1 val="6.78% (inactive)"
